Please provide measured IC50 for the entries that follow.
Molecular target: P2Y12 receptor (Homo sapiens, UniProt Q9H244)
Construct: expressed in transfected cells; host or cells: CHO cells (membrane preparation)
Sequence (Q9H244 whole entry): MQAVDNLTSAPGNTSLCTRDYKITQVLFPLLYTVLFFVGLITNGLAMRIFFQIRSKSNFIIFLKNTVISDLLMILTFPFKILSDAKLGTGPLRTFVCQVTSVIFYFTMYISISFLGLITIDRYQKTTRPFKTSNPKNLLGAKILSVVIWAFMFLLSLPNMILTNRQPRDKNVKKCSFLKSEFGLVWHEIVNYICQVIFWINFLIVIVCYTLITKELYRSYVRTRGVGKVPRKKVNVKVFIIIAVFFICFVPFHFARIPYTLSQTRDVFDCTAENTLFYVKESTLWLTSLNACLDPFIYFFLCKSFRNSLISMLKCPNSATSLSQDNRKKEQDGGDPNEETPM
Experiment: Functional inhibition of 2-Me-S-ADP induced P2Y12 signalling (35S-GTPγS binding, cell membranes)
Type: biochemical
Settings: 35S-GTPγS assay, membranes, EC80 concentration of 2-methyl-thio-adenosine diphosphate, 30° C. for 45 min; read-out: GTPγS (IC50 μM)
Don't forget the unit after the value.

Req: Give recorded IC50. CC(C)OC(=O)c1cc(C#N)c(N2CCC(C(=O)NS(=O)(=O)Cc3ccccc3)CC2)nc1CN1CCCCC1=O [Example 70]
Resp: 0.102 µM

Req: Give recorded IC50. CCOC(=O)c1cc(Cl)c(N2CCC(C(=O)NS(=O)(=O)N(C)c3ccc(F)cc3)CC2)nc1CN1CCCC1=O [Example 92]
Resp: 0.077 µM

Req: Give recorded IC50. CCOC(=O)c1cc(C#N)c(N2CCC(C(=O)NS(=O)(=O)CC3CCC(C)CC3)CC2)nc1CN1CCCCC1=O (stereo not shown) [Example 58]
Resp: 0.164 µM

Req: Give recorded IC50. CCSC(=O)c1cc(C#N)c(N2CCC(C(=O)NS(=O)(=O)CC3CCCC3)CC2)nc1CN1CCCC1=O [Example 97]
Resp: 1.22 µM
